# assayedTarget: recombinant human KRAS^G12D protein (Homo sapiens, UniProt P01116, G12D)
# Sequence (P01116 1-188 isoform P01116-2 G12D): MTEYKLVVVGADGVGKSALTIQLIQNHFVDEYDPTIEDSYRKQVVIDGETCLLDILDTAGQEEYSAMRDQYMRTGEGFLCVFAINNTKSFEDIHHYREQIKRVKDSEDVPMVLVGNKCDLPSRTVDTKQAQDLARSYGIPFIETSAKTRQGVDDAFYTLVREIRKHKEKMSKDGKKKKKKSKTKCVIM
# methodNotes: Temperature-dependent Fluorescence (TdF) KRAS G12D protein binding assay
# runConditions: 6 μM KRAS^G12D protein, 10 μM compound, Sypro Orange; Kd calculated from the fluorescent shift
Known Kd of a selection of compounds

Consider the reported Kd for these compounds:
C[C@H]1CNCCN1c1nc(OC[C@@H]2CCCN2C)nc2c(F)c(-c3cc(O)cc4cccc(Cl)c34)c(Cl)cc12 : > 5000 nM
Oc1cc(-c2c(Cl)cc3c(N4CC5CCC(C4)N5)nc(OC[C@]45CCCN4C[C@@H](F)C5)nc3c2F)c2c(Cl)cccc2c1 (single isomer, unassigned) [Compound 101] : < 500 nM
Fc1c(-c2cccc3ccccc23)c(Cl)cc2c(N3CC4CCC(C3)N4)nc(OCC34CCCN3CCC4)nc12 : 500 to 5000 nM

Input line: Record request: Kd value, item `C#Cc1c(F)ccc2cc(O)cc(-c3c(OC)cc4c(N5CC6CCC(C5)N6)nc(OC[C@@]56CCCN5C[C@H](F)C6)nc4c3F)c12`
Output line: < 500 nM

Input line: Cool, now C#Cc1c(F)ccc2cc(O)cc(-c3c(Cl)cc4c(N5CC6CCC(C5)N6)nc(OC[C@@]56CCCN5C[C@H](F)C6)nc4c3F)c12 (single isomer, unassigned) [Compound 154]
Output line: < 500 nM

Input line: Follow-up item: Oc1cc(-c2c(Cl)cc3c(N4CC5CCC(C4)N5)nc(OCC45CCCN4CC(F)(F)C5)nc3c2F)c2c(Cl)cccc2c1 (stereo not drawn)
Output line: < 500 nM

----------
# assayedTarget: recombinant human KRAS^G12D protein (Homo sapiens, UniProt P01116, G12D)
# methodNotes: Temperature-dependent Fluorescence (TdF) KRAS G12D protein binding assay
# runConditions: 6 μM KRAS^G12D protein, 10 μM compound, Sypro Orange; Kd calculated from the fluorescent shift
# Protocol: The Temperature-dependent Fluorescence (TdF) assay was used to analyze binding affinity of compound to recombinant human KRAS^G12D protein. The TdF assay was conducted in the 96-well-based real-time fluorescence plate reader (ABI 7500 or Roche LightCycler 480). Fluorescent dye Sypro Orange (Sigma) was used to monitor the protein folding-unfolding transition. […] Binding affinity (Kd value) was calculated based on the degree of fluorescent shift of the protein with and without compound.
valueKind: Kd

Example entries begin here.
CN1CCC[C@H]1COc1nc(N2CCNC(CC(N)=O)C2)c2cc(Cl)c(-c3cc(O)cc4ccccc34)c(F)c2n1 (stereo partly shown) : > 5 µM
CNC(=O)c1cc2c(N3CC4CCC(C3)N4)nc(OC[C@@]34CCCN3C[C@H](F)C4)nc2c(F)c1-c1cc(O)cc2cccc(Cl)c12 : < 0.5 µM
C[C@H]1CNCCN1c1nc(OC[C@@]23CCCN2C[C@H](F)C3)nc2c(F)c(-c3cc(O)cc4ccccc34)c(Cl)cc12 : 0.5 to 5 µM
CN(C)CCCOc1nc(N2CC3CCC(C2)N3)c2cc(Cl)c(-c3c(O)cccc3F)c(F)c2n1 : > 5 µM
Oc1ccc2ccccc2c1-c1c(Cl)cc2c(N3CC4CCC(C3)N4)nc(OCC34CCCN3CCC4)nc2c1F : 0.5 to 5 µM

Input line: // Kd lookup, key: `N#CC[C@H]1CN(c2nc(OC[C@@]34CCCN3C[C@H](F)C4)nc3c(F)c(-c4cc(O)cc5ccccc45)c(Cl)cc23)CCN1`
Output line: > 5 µM

Input line: And what about the compound `C[C@@H]1CN(c2nc(OCC3CN(C)C3)nc3c(F)c(-c4cc(O)cc5ccccc45)c(Cl)cc23)[C@@H](C)CN1` ?
Output line: > 5 µM
